# assayedTarget: 5-hydroxytryptamine receptor 1A (Homo sapiens, UniProt P08908)
# Sequence (P08908 whole entry): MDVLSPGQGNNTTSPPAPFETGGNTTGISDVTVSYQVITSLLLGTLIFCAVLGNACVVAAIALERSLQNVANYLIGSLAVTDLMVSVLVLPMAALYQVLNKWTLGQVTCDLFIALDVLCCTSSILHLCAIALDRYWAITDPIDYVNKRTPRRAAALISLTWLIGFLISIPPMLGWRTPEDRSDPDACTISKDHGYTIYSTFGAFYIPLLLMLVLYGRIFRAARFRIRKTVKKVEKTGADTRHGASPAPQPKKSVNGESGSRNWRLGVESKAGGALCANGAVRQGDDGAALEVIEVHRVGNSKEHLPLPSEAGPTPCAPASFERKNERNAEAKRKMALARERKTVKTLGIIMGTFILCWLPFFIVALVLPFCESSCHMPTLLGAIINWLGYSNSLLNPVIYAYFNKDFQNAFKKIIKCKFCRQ
resultType: IC50

CC1=CC(C)(C)c2ccc(NS(=O)(=O)c3c(Cl)nc4sccn34)cc21 | > 10 µM
